From: patent US11034672B1

system: HER2 S310F; assay: Tumor pHER2/pERK AlphaLisa in mice bearing HER2 S310F BaF3 tumors (Examples 15-18); assay type: in vivo; details: two day acute oral dosing, 15 mg/kg; at peak plasma levels

| Compound | System tested | pHER2 (Tyr1221/1222) in tumors |
| --- | --- | --- |
| CC#CC(=O)Nc1cc2c(Nc3ccc(OCc4ccccn4)c(Cl)c3)ncnc2cc1OCCN1CCOCC1 [compound 5] | HER2 S310F | reduction |
| C=CC(=O)Nc1cc2c(Nc3ccc(OCc4cccc(F)c4)c(Cl)c3)ncnc2cc1OCCN1CCOCC1 [compound 27] | HER2 S310F | reduction |
| C=CC(=O)Nc1cc2c(Nc3ccc(OCc4ccccn4)c(Cl)c3)ncnc2cc1OCCCN1CC(OC)C1 [compound 118] | HER2 S310F | reduction |

* * *

For each of the compounds below, state its IC50.
molecular target: HER2 WT (Homo sapiens, UniProt P04626); test: BaF3 cell proliferation assay, HER2 WT (Table B); assay type: cell-based; conditions: potency code, 3 days, CellTiterGlo, read-out: HER2 WT (Activity for Inhibiting HER2)
Sequence (P04626 23-1255): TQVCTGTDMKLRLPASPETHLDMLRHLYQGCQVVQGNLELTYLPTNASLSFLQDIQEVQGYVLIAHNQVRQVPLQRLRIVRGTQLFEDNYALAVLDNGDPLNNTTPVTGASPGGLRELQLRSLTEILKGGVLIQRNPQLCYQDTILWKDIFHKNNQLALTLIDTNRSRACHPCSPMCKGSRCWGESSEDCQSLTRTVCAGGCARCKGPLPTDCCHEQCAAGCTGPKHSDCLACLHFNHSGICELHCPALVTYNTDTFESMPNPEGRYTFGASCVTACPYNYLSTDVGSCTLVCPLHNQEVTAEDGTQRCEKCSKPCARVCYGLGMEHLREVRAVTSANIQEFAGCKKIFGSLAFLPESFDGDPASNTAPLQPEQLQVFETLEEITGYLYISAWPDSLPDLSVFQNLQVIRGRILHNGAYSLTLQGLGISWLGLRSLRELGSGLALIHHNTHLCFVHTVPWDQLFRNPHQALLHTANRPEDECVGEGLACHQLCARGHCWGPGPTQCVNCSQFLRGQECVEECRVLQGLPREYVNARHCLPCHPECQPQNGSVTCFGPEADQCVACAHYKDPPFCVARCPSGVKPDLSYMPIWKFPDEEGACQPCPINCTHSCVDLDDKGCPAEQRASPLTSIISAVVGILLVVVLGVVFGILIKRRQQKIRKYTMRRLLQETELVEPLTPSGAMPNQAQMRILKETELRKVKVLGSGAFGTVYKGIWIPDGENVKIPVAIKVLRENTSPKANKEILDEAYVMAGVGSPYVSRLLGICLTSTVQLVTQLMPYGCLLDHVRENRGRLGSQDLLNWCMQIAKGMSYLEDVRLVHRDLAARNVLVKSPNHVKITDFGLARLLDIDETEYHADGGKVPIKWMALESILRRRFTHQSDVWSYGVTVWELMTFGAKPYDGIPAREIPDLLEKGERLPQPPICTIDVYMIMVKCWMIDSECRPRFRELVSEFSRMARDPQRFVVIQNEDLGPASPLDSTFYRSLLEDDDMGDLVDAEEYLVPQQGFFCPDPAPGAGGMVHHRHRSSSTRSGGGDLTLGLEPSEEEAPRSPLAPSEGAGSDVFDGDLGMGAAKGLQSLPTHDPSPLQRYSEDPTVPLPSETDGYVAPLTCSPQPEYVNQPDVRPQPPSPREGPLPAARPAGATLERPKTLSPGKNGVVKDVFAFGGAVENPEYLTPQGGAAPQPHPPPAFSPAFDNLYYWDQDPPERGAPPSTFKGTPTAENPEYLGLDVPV

Request: # IC50 lookup, item C=CC(=O)Nc1cc2c(Nc3ccc(OCc4ccccn4)c(Cl)c3)ncnc2cc1O[C@H]1CCN(C)C1
Result: 5 to 10 nM

Request: # IC50 lookup, item C=CC(=O)Nc1cc2c(Nc3ccc(OCc4ccccn4)c(Cl)c3)ncnc2cc1OCCN(C)C
Result: 5 to 10 nM

Request: # IC50 lookup, item C=CC(=O)Nc1cc2c(Nc3ccc(OCc4ccccn4)c(Cl)c3)ncnc2cc1N1CC(N2CCOCC2)C1
Result: 50 to 100 nM

Request: # IC50 lookup, item C=CC(=O)Nc1cc2c(Nc3ccc(OCc4ccccn4)c(Cl)c3)ncnc2cc1OC1CCN(C)C1 (stereo not drawn)
Result: < 5 nM

Request: # IC50 lookup, item C=CC(=O)Nc1cc2c(Nc3ccc(OCc4ccccn4)cc3F)ncnc2cc1OCCN1CCOCC1
Result: 20 to 30 nM

Request: # IC50 lookup, item C=CC(=O)Nc1cc2c(Nc3ccc(OCc4ccccn4)c(Cl)c3)ncnc2cc1OCC1(N(C)C)CC1
Result: 5 to 10 nM

Request: # IC50 lookup, item CC#CC(=O)Nc1cc2c(Nc3ccc(OCc4ccccn4)c(Cl)c3)ncnc2cc1OCCN1CCOCC1
Result: < 5 nM

Request: # IC50 lookup, item C=CC(=O)Nc1cc2c(Nc3ccc(OCc4ccccn4)c(Cl)c3)ncnc2cc1OCCN1CCOCC1
Result: 5 to 10 nM

Request: # IC50 lookup, item C=CC(=O)Nc1cc2c(Nc3ccc(OCc4ccccn4)c(Cl)c3)ncnc2cc1N(C)CCCN1CCOCC1
Result: 50 to 100 nM

Request: # IC50 lookup, item C=CC(=O)Nc1cc2c(Nc3ccc(Oc4ccccc4)cc3)ncnc2cc1OCCN1CCOCC1
Result: 30 to 50 nM

Request: # IC50 lookup, item C=CC(=O)Nc1cc2c(Nc3ccc(OCc4cccc(F)c4)c(Cl)c3)ncnc2cc1OCCN1CCOCC1
Result: 10 to 20 nM

Request: # IC50 lookup, item C=CC(=O)Nc1cc2c(Nc3ccc(OCc4ccccn4)c(Cl)c3)ncnc2cc1O[C@@H]1CCN(C)C1
Result: < 5 nM

Request: # IC50 lookup, item C=CC(=O)Nc1cc2c(Nc3ccc(Oc4ccc(Cl)cc4)cc3)ncnc2cc1OCCN1CCOCC1
Result: 100 to 200 nM

Request: # IC50 lookup, item C=CC(=O)Nc1cc2c(Nc3ccc(Oc4ccc(C)nc4)c(C)c3)ncnc2cc1OC1CCN(C)C1 (stereo not drawn)
Result: 10 to 20 nM

Request: # IC50 lookup, item C=CC(=O)Nc1cc2c(Nc3ccc(OCc4cccc(F)c4)c(Cl)c3)ncnc2cc1N(C)CCN(C)C
Result: 50 to 100 nM

* * *

biological target: EGFR V3 (Homo sapiens, UniProt P00533, DELINS30-297G); construct: expressed in transfected cells; host or cells: BaF3 (murine pro-B), retroviral pMXs-IRES-Blasticidin; assay: BaF3 cell proliferation assay, EGFR V3 (Table A); type: cell-based; conditions: potency code, 3 days, CellTiterGlo, read-out: EGFR V3 (Activity for Inhibiting EGFR)
Sequence (P00533 with tags, fused parts or gaps DELINS30-297G): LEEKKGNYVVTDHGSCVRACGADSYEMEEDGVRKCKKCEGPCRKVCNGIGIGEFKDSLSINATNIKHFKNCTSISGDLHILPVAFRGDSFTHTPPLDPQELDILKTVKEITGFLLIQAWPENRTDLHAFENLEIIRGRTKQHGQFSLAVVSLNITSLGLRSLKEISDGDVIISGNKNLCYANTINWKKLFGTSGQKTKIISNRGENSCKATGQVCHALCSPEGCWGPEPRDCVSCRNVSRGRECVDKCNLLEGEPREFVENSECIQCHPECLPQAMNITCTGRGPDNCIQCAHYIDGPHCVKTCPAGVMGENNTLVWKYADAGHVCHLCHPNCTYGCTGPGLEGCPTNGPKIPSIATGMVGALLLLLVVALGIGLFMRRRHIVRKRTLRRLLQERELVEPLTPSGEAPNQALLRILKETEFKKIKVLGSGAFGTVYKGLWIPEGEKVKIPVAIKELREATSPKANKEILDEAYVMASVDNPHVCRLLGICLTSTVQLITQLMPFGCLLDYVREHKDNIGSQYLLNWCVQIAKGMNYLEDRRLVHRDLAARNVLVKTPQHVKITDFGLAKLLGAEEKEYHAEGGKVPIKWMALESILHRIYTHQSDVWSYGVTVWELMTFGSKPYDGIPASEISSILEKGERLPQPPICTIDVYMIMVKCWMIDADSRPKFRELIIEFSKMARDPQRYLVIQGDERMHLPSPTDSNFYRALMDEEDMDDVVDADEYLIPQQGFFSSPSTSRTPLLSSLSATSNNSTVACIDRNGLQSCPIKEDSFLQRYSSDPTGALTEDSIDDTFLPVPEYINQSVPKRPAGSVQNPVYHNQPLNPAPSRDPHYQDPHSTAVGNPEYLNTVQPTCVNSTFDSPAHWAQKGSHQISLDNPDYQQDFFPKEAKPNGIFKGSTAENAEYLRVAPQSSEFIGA
Measure: IC50

Request: Query for EGFR V3 (Homo sapiens, UniProt P00533, DELINS30-297G): what IC50 does the record show for C=CC(=O)Nc1cc2c(Nc3cc(Cl)c(OCc4cccc(F)c4)cc3F)ncnc2cc1OCCN1CCN(C)CC1 [compound 145] ?
Result: 50 to 100 nM

Request: Query for EGFR V3 (Homo sapiens, UniProt P00533, DELINS30-297G): what IC50 does the record show for CC#CC(=O)Nc1cc2c(Nc3ccc(OCc4ccccn4)c(Cl)c3)ncnc2cc1C#CC1[C@H]2CN(C)C[C@@H]12 (stereo partly drawn) [compound 107] ?
Result: 50 to 100 nM

Request: Query for EGFR V3 (Homo sapiens, UniProt P00533, DELINS30-297G): what IC50 does the record show for C=CC(=O)Nc1cc2c(Nc3ccc(OCc4ccccn4)c(Cl)c3)ncnc2cc1OC1CCN(C)C1 (stereo not drawn) [compound 16] ?
Result: 20 to 30 nM

Request: Query for EGFR V3 (Homo sapiens, UniProt P00533, DELINS30-297G): what IC50 does the record show for C=CC(=O)Nc1cc2c(Nc3ccc(OCc4ccccn4)c(Cl)c3)ncnc2cc1OCCN1CCC(O)C1 (stereo not drawn) [compound 30] ?
Result: 30 to 50 nM

Request: Query for EGFR V3 (Homo sapiens, UniProt P00533, DELINS30-297G): what IC50 does the record show for C=CC(=O)Nc1cc2c(Nc3ccc(Oc4ccc(C)nc4)c(C)c3)ncnc2cc1C#C[C@@H]1[C@H]2CN(C)C[C@@H]12 [compound 104] ?
Result: 30 to 50 nM

Request: Query for EGFR V3 (Homo sapiens, UniProt P00533, DELINS30-297G): what IC50 does the record show for C=CC(=O)Nc1cc2c(Nc3ccc(OCc4ccccn4)c(Cl)c3)ncnc2cc1OCCN(C)C [compound 19] ?
Result: 20 to 30 nM

Request: Query for EGFR V3 (Homo sapiens, UniProt P00533, DELINS30-297G): what IC50 does the record show for C=CC(=O)Nc1cc2c(Nc3ccc(OCc4ccccn4)c(Cl)c3)ncnc2cc1C#CC(C)(C)N(C)C [compound 66] ?
Result: 20 to 30 nM

Request: Query for EGFR V3 (Homo sapiens, UniProt P00533, DELINS30-297G): what IC50 does the record show for CC#CC(=O)Nc1cc2c(Nc3ccc(OCc4ccccn4)c(Cl)c3)ncnc2cc1OC1CCN(C)C1 (stereo not drawn) [compound 67] ?
Result: 20 to 30 nM

Request: Query for EGFR V3 (Homo sapiens, UniProt P00533, DELINS30-297G): what IC50 does the record show for C=CC(=O)Nc1cc2c(Nc3ccc(OCc4ccccn4)c(Cl)c3)ncnc2cc1O[C@H]1CCCN(C)CC1 [compound 99] ?
Result: 20 to 30 nM

Request: Query for EGFR V3 (Homo sapiens, UniProt P00533, DELINS30-297G): what IC50 does the record show for C=CC(=O)Nc1cc2c(Nc3ccc(OCc4ccccn4)c(Cl)c3)ncnc2cc1OCCN1CCS(=O)(=O)CC1 [compound 125] ?
Result: 100 to 200 nM

Request: Query for EGFR V3 (Homo sapiens, UniProt P00533, DELINS30-297G): what IC50 does the record show for C=CC(=O)Nc1cc2c(Nc3ccc(OCc4ncccn4)c(Cl)c3)ncnc2cc1OCCCN1CCOCC1 [compound 166] ?
Result: 30 to 50 nM

Request: Query for EGFR V3 (Homo sapiens, UniProt P00533, DELINS30-297G): what IC50 does the record show for C=CC(=O)Nc1cc2c(Nc3ccc(OCc4ccccn4)c(Cl)c3)ncnc2cc1N1CCC2(CCN(C)C2)C1 (stereo not drawn) [compound 46] ?
Result: 50 to 100 nM

Request: Query for EGFR V3 (Homo sapiens, UniProt P00533, DELINS30-297G): what IC50 does the record show for C=CC(=O)Nc1cc2c(Nc3ccc(OCc4ccccn4)c(Cl)c3)ncnc2cc1OCC1CCN1C (stereo not drawn) [compound 116] ?
Result: 30 to 50 nM

Request: Query for EGFR V3 (Homo sapiens, UniProt P00533, DELINS30-297G): what IC50 does the record show for C=CC(=O)Nc1cc2c(Nc3ccc(Oc4cccc(Cl)c4)cc3)ncnc2cc1OCCN1CCOCC1 [compound 37] ?
Result: 100 to 200 nM

Request: Query for EGFR V3 (Homo sapiens, UniProt P00533, DELINS30-297G): what IC50 does the record show for C=CC(=O)Nc1cc2c(Nc3cnc(NCc4ccccn4)c(Cl)c3)ncnc2cc1OCCN1CCOCC1 [compound 97] ?
Result: 50 to 100 nM
